TARGET ENTITY: F508del (Homo sapiens, UniProt P13569, DEL508-508)
Construct: expressed in transfected cells
Sequence (P13569 with tags, fused parts or gaps DEL508-508): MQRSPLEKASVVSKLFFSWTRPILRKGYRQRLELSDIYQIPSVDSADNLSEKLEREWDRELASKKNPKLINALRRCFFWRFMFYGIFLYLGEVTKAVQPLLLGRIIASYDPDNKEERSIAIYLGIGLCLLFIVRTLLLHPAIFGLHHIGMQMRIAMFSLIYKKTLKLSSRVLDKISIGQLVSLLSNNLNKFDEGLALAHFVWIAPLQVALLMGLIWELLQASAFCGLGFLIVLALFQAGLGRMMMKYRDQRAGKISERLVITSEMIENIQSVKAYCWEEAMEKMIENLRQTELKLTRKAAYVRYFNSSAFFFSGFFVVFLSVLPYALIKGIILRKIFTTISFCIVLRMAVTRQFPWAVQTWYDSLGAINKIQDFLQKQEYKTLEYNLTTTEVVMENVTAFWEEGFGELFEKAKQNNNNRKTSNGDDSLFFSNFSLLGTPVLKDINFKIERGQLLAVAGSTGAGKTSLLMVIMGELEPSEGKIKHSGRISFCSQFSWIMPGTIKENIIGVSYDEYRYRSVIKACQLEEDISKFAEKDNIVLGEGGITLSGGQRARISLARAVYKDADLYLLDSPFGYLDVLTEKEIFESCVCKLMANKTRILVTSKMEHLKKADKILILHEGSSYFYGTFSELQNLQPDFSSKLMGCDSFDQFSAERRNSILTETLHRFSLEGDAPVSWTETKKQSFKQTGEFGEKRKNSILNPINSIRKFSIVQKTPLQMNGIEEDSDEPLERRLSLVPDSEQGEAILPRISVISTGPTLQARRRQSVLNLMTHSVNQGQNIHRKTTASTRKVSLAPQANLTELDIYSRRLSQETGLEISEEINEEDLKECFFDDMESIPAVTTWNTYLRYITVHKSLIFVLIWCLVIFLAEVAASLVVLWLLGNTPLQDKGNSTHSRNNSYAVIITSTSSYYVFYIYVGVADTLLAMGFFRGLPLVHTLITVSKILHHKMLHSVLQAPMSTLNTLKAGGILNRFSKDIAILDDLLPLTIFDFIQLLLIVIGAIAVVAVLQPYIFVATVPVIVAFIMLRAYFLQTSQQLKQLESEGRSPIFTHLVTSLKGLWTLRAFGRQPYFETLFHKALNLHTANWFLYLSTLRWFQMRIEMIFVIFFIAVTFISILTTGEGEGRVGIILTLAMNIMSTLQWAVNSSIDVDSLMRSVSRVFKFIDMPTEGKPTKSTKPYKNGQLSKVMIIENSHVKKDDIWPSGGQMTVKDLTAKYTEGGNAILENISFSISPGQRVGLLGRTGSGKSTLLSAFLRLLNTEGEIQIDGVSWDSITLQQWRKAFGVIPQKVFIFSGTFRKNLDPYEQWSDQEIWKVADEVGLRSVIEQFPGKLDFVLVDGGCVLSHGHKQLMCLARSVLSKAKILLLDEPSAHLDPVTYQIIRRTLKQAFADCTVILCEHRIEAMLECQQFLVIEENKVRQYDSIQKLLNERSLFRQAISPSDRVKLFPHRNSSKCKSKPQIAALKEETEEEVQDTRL
PROTOCOL SUMMARY: Protocol 1: membrane potential optical assay (FLIPR III, voltage sensing dye), identification of potentiator compounds
Type: cell-based
EXPERIMENTAL CONTEXT: Table 3, compounds of Table 1
ENDPOINT NAME: EC30

* CC(=O)NC1CCN(S(=O)(=O)NC(=O)c2ccc(-c3cc(F)cc(OCC(C)C)c3)nc2N2CC(C)CC2(C)C)C1 (stereo not drawn) | +++ (“+++” means <3 uM)
* CC(C)COc1cc(-c2ccc(C(=O)NS(=O)(=O)c3cccc(N)n3)c(N3[C@H](C)CC[C@@H]3C)n2)ccc1Cl | +++ (“+++” means <3 uM)
* CC(C)COc1cc(F)cc(-c2ccc(C(=O)NS(=O)(=O)c3cccc(N)n3)c(N3CCOCC3(C)C)n2)c1 | +++ (“+++” means <3 uM)
* CC(C)COc1cc(F)cc(-c2ccc(C(=O)NS(=O)(=O)c3cccc(N)n3)c(O[C@@H]3C[C@H]4CC[C@@H]3C4)n2)c1 | +++ (“+++” means <3 uM)
* CC1CN(c2ncccc2C(=O)NS(=O)(=O)c2cccc(Nc3cccc4cccnc34)n2)C(C)(C)C1 (stereo not drawn) | +++ (“+++” means <3 uM)
* CC(C)COc1cc(F)cc(-c2ccc(C(=O)NS(=O)(=O)c3cccc(N)n3)c(N3CC(C)CCC3C)n2)c1 (single isomer, unassigned) [Compound 1864] | +++ (“+++” means <3 uM)
* Cn1ccc2cccc(Oc3nc(C(C)(C)C)ccc3C(=O)NS(=O)(=O)c3cccc(N)n3)c21 | +++ (“+++” means <3 uM)
* CCOc1cc(C)n(-c2ccc(C(=O)NS(=O)(=O)c3cccc(N)n3)c(N3C[C@@H](C)CC3(C)C)n2)n1 | +++ (“+++” means <3 uM)
* CCOc1ccc(-c2ccc(C(=O)NS(=O)(=O)c3cccc(N)n3)c(N3CCC(C)CC3)n2)cc1 | +++ (“+++” means <3 uM)
* CCC1CCC(C)N1c1nc(-c2cc(F)cc(OCC(C)C)c2)ccc1C(=O)NS(=O)(=O)c1cccc(N)n1 (stereo not drawn) | +++ (“+++” means <3 uM)
* CCOc1cccc(-c2ccc(C(=O)NS(=O)(=O)c3cccnc3N)c(N3C[C@@H](C)CC3(C)C)n2)c1 | +++ (“+++” means <3 uM)
* Cc1cn(-c2ccc(C(=O)NS(=O)(=O)c3ccc[nH]c3=O)c(N3C[C@@H](C)CC3(C)C)n2)nc1OCC(C)C | +++ (“+++” means <3 uM)
* CC(C)COc1cc(F)cc(-c2ccc(C(=O)NS(=O)(=O)c3cccc(N)n3)c(OC3CCOCC3)n2)c1 | +++ (“+++” means <3 uM)
* Cc1cc(C)c(Oc2nc(C(C)(C)C)ccc2C(=O)NS(=O)(=O)c2c(C)cc[nH]c2=O)c(C)c1 | +++ (“+++” means <3 uM)
* CC(=O)C1CC=C(c2cc(C(=O)NS(=O)(=O)c3cccc(N)n3)c(N3CC(C)CC3(C)C)nc2C(C)(C)C)CC1 (stereo not drawn) | +++ (“+++” means <3 uM)
* CCc1ccc(-c2ccc(C(=O)NS(=O)(=O)c3ccc[nH]c3=O)c(Oc3c(C)cc(C)cc3C)n2)cc1 | +++ (“+++” means <3 uM)
* CC(C)COc1cc(F)cc(-c2ccc(C(=O)NS(=O)(=O)c3ccn[nH]3)c(N3C[C@H](C)C[C@@H](C)C3)n2)c1 | +++ (“+++” means <3 uM)
* Cc1cc(C)c(Oc2nc(-c3ccccc3Cl)ccc2C(=O)NS(=O)(=O)c2cccc(N)n2)c(C)c1 | +++ (“+++” means <3 uM)
* CCOc1cccc2c1CN(Cc1ccc(C(C)C)cc1)C2(C)C(=O)NS(=O)(=O)c1cccc(F)n1 (stereo not drawn) | +++ (“+++” means <3 uM)
* C#Cc1cccc(Oc2cccc(S(=O)(=O)NC(=O)c3cccnc3N3CC(C)CC3(C)C)n2)c1 (stereo not drawn) | +++ (“+++” means <3 uM)
* Cc1cc(C)c(Oc2nc(C3CCCC3)ccc2C(=O)NS(=O)(=O)c2cccc(N)n2)c(C)c1 | +++ (“+++” means <3 uM)
* CC1CN(c2nc(C(C)(C)C)c(C3=CCN(C(=O)OC(C)(C)C)CC3)cc2C(=O)NS(=O)(=O)c2cccc(N)n2)C(C)(C)C1 (stereo not drawn) | +++ (“+++” means <3 uM)

----------
TARGET ENTITY: F508del (Homo sapiens, UniProt P13569, DEL508-508)
Construct: expressed in transfected cells
PROTOCOL SUMMARY: Protocol 2: FRET membrane potential optical assay (VIPR), identification of correction compounds
Type: cell-based
EXPERIMENTAL CONTEXT: F508del CFTR modulator activity; compounds of Table 1; read-out: EC30
Listed here are compounds together with their documented EC30.
ENDPOINT NAME: EC30

• Cc1cccc(-c2cnc(N3CC(C)CC3(C)C)c(C(=O)NS(=O)(=O)c3cccc(N)n3)c2)c1 (stereo not shown) = < 3000 nM
• CC1CN(c2ncccc2C(=O)NS(=O)(=O)c2cccc(OCc3ccccc3Cl)n2)C(C)(C)C1 (stereo not shown) = < 3000 nM
• CC(C)COc1ccc(-c2ccc(C(=O)NS(=O)(=O)c3ccc[nH]c3=O)c(N3C[C@@H](C)CC3(C)C)n2)cc1 = < 3000 nM
• CC(C)COc1cc(F)cc(-c2ccc(C(=O)N(C)S(=O)(=O)c3cccc(N)n3)c(N3C[C@@H](C)CC3(C)C)n2)c1 = < 3000 nM
• CC1CN(c2ncccc2C(=O)NS(=O)(=O)c2cccc(OCc3ccc4c(c3)OCO4)n2)C(C)(C)C1 (stereo not shown) = < 3000 nM
• CC1CN(c2ncccc2C(=O)NS(=O)(=O)c2cccc(N3Cc4ccc(F)cc4C3)n2)C(C)(C)C1 (stereo not shown) = < 3000 nM
• CC1CN(c2ncccc2C(=O)NS(=O)(=O)c2cccc(OCCc3ccsc3)n2)C(C)(C)C1 (stereo not shown) = < 3000 nM
• CC1CN(c2ncccc2C(=O)NS(=O)(=O)c2cccc(N3CCC(F)(F)C3)n2)C(C)(C)C1 (stereo not shown) = 3000 to 10000 nM
• CC1CN(c2ncccc2C(=O)NS(=O)(=O)c2cccc(Oc3ccc4c(c3)OCO4)n2)C(C)(C)C1 (stereo not shown) = < 3000 nM
• CC1CN(c2ncccc2C(=O)NS(=O)(=O)c2cccc(Nc3cccc(C(C)(C)C)c3)n2)C(C)(C)C1 (stereo not shown) = < 3000 nM
• COc1ccc(OC)c(-c2ccc(C(=O)NS(=O)(=O)c3cccnc3N)c(N3C[C@@H](C)CC3(C)C)n2)c1 = < 3000 nM
• CC1CN(c2nc(-n3ccc(OCC(C)(C)C)n3)ccc2C(=O)NS(=O)(=O)c2cccnc2N)C2(CCC2)C1 (single isomer, unassigned) = < 3000 nM
• CC(C)COc1cc(F)cc(-c2ccc(C(=O)NS(=O)(=O)c3cccc(N)n3)c(N3CC(C(C)(C)C)CC3(C)C)n2)c1 (stereo not shown) = < 3000 nM
• C[C@@H]1CN(c2nc(-c3cccc(C#N)c3)ccc2C(=O)NS(=O)(=O)c2ccc[nH]c2=O)C(C)(C)C1 = 3000 to 10000 nM
• C[C@@H]1CN(c2nc(-c3ccc(F)cc3O)ccc2C(=O)NS(=O)(=O)c2cccnc2N)C(C)(C)C1 = < 3000 nM
• CC1CN(c2ncccc2C(=O)NS(=O)(=O)c2cccc(NCCCCNC(=O)OC(C)(C)C)n2)C(C)(C)C1 (stereo not shown) = 3000 to 10000 nM
• C[C@@H]1CN(c2nc(-c3cccc(F)c3)ccc2C(=O)NS(=O)(=O)N2CC[C@H](N)C2)C(C)(C)C1 = 3000 to 10000 nM
• COc1ccc(-c2ccc(C(=O)NS(=O)(=O)c3ccc[nH]c3=O)c(N3C[C@@H](C)CC3(C)C)n2)c(F)c1F = < 3000 nM
• CC1CN(c2ncccc2C(=O)NS(=O)(=O)c2cccc(NCc3cccc(F)c3F)n2)C(C)(C)C1 (stereo not shown) = < 3000 nM
• COc1cc(-c2ccc(C(=O)NS(=O)(=O)c3cccnc3N)c(N3C[C@@H](C)CC3(C)C)n2)cc(F)c1F = < 3000 nM
• CCOc1ccccc1-c1cnc(N2CC(C)CC2(C)C)c(C(=O)NS(=O)(=O)c2cccc(N)n2)c1 (stereo not shown) = < 3000 nM
• CC1CN(c2ncccc2C(=O)NS(=O)(=O)c2cccc(N[C@H](C)C(C)C)n2)C(C)(C)C1 (stereo partly shown) = < 3000 nM
• CC1CN(c2ncc(/C=C/C3CCCCC3)cc2C(=O)NS(=O)(=O)c2cccc(N)n2)C(C)(C)C1 (stereo not shown) = < 3000 nM
• CCOC(=O)c1cccc(Nc2cccc(S(=O)(=O)NC(=O)c3cccnc3N3CC(C)CC3(C)C)n2)c1 (stereo not shown) = < 3000 nM
• CC1CN(c2ncccc2C(=O)NS(=O)(=O)c2cccc(Nc3ccc(F)c(C#N)c3)n2)C(C)(C)C1 (stereo not shown) = < 3000 nM
• COC[C@@H]1CCCN1c1cccc(S(=O)(=O)NC(=O)c2cccnc2N2CC(C)CC2(C)C)n1 (stereo partly shown) = 3000 to 10000 nM
• CC1CN(c2ncccc2C(=O)NS(=O)(=O)c2cccc(OCc3ccc(C(F)(F)F)cc3)n2)C(C)(C)C1 (stereo not shown) = < 3000 nM
• CCC(C)(C)C(=O)N1CCC=C(c2ccc(C(=O)NS(=O)(=O)c3cccc(N)n3)c(N3C[C@@H](C)CC3(C)C)n2)C1 = 3000 to 10000 nM
